# Tested System: T1, Human CD137 ECD (human)
# T1 construct: entry includes C-terminal His-tag and biotin acceptor peptide; also called human CD137 extracellular domain; 4-1BB
# T1 sequence (chain, as listed by the source limits assumed): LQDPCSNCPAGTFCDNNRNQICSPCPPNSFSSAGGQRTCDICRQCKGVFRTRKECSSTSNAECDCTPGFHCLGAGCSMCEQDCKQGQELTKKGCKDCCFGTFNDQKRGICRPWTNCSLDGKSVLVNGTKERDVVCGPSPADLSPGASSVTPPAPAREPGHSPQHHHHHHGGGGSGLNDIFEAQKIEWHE
# Run Description: Biacore SPR, vs parent H183/L072
Measurement Label: fold change of affinity
Please make sure the unit comes right after the number.

// worked examples, fold change of affinity included
• H183/L072 VL H34V (antibody, name in Kabat numbering, V domains shown, Dual-Ig) VH: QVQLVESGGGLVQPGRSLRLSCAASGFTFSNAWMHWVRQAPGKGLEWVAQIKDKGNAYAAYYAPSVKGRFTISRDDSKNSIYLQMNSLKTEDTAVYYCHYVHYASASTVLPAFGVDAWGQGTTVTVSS VL: DIVMTQSPLSLPVTPGEPASISCQASQELVHMNRNTYLVWYQQKPGQAPRLLIYKVSNRFPGVPDRFSGSGSGTDFTLKISRVEAEDVGVYYCAQGTSVPFTFGQGTKLEIK = 0 fold
• H183/L072 VL S93H (antibody, name in Kabat numbering, V domains shown, Dual-Ig) VH: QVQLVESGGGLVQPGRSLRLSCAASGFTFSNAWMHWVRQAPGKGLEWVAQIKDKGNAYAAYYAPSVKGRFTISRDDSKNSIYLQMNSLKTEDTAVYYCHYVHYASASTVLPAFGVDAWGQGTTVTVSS VL: DIVMTQSPLSLPVTPGEPASISCQASQELVHMNRNTYLHWYQQKPGQAPRLLIYKVSNRFPGVPDRFSGSGSGTDFTLKISRVEAEDVGVYYCAQGTHVPFTFGQGTKLEIK = 1.3 fold

// below: fold change of affinity requested for another binder
[Q] Query (binder): H183/L072 VL Q27G (antibody, name in Kabat numbering, V domains shown, Dual-Ig) VH: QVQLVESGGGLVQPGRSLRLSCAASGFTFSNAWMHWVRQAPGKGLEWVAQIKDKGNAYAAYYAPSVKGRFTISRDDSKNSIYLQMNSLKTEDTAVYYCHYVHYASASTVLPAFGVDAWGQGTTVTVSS VL: DIVMTQSPLSLPVTPGEPASISCQASGELVHMNRNTYLHWYQQKPGQAPRLLIYKVSNRFPGVPDRFSGSGSGTDFTLKISRVEAEDVGVYYCAQGTSVPFTFGQGTKLEIK ; field requested: fold change of affinity
[A] 0.9 fold
